System: SW-620
Assay: NCI tumour cell line growth inhibition, 48 h
Active and inactive are the calls of the source. Rule as the data show it: active = GI50 up to about 1.1 µM and inactive = higher.
Possible outcomes: active, inactive

compound: O=[N+]([O-])c1c(O)c2nonc2c2nn(-c3ccccc3)nc12
class: inactive

compound: N#C/C(=C\c1cc(OCc2ccccc2)c(OCc2ccccc2)cn1)C(N)=O
class: inactive

compound: CCCCNc1nc(SC)nc2[nH]cnc12
class: inactive

compound: O=C(O)Cc1ccccc1 [PHENYLACETIC ACID]
class: inactive

compound: N#CC1(Nc2ccc(-c3ccc(NC4(C#N)CCCC4)cc3)cc2)CCCC1
class: inactive

compound: Cc1cc(NC(=O)NC(=O)c2ccccc2NC(=O)C(C)N)ccc1Oc1ncc(Br)cn1 (stereo unspecified)
class: active

compound: COC(=O)/C=C(\S/C(=C(/c1ccc(OC)cc1)n1cc(C(=O)OC)c(C(=O)OC)n1)c1ccc(OC)cc1)C(=O)OC
class: inactive

compound: O=C1Cc2c([nH]c3ccc([N+](=O)[O-])cc23)-c2ccccc2N1 [ALSTERPAULLONE]
class: active

compound: OCC(O)C(O)C(O)c1nn(-c2ccc(F)cc2)c2nc3cc(Cl)c(Cl)cc3nc12 (stereo unspecified)
class: inactive

compound: C=C1C(=O)C23C(CC(OC(C)=O)C1[C@@H]2OC(C)=O)C1(C)C(OC(C)=O)CCC(C)(C)C1C[C@@H]3OC(C)=O (stereo partly specified)
class: inactive

compound: O=C(O)CCCN1CCCCC1
class: inactive

compound: CCOc1nc(-c2ccccc2)cc(-c2ccc(N3CCOCC3)cc2)c1C#N
class: inactive

compound: Cc1csc(NC23CC4CC(CC(C4)C2)C3)[n+]1C(P(=O)([O-])O)P(=O)(O)O (stereo unspecified)
class: inactive

compound: CC#CC#C/C(=C/C=CC(=O)OC)SC
class: inactive

compound: COc1cc(C[P+](c2ccccc2)(c2ccccc2)c2ccccc2)cc(OC)c1OC
class: inactive

compound: Cc1cccc(C(C)C)c1NC(=O)C(=O)C(C(=O)c1ccccc1F)C1OC(=O)c2ccccc21 (stereo unspecified)
class: inactive

compound: CCCCCCNC(=O)c1cc(CCc2cc(O)ccc2O)ccc1O
class: inactive

compound: C/C(=N\Nc1nc2cc(Cl)ccc2s1)c1ccccn1
class: active

compound: O=C(NC(C(F)(F)F)(C(F)(F)F)P(=O)(Cc1ccccc1)Cc1ccccc1)C(C(F)(F)F)C(F)(F)F
class: inactive

compound: C=C(C)[C@H]1CC(=O)[C@@]2(C)C[C@H]3O[C@]3(C)CC/C=C(\C)CC[C@H]12
class: inactive

compound: CN1C(=O)CC2(C)c3cc(O)cc(Br)c3N(C)C12 (stereo unspecified)
class: inactive
